The measured values listed here are drawn from the supplement of paper PMC7858590.

Tested on: human monocyte-derived macrophages (M0)
Experiment: cell shape (eccentricity) Z-score vs DMSO control; higher = more elongated, M2-like morphology
Conditions: 20 µM; 24 h; macrophage state: M0 (M-CSF)
In all, about 3,800 compounds were measured (“cell shape (eccentricity) Z-score vs DMSO control”: median about 1.1, lowest 2% from about -4.7 on). This excerpt belongs to a sample that is enriched for the lowest values.
Note to self: values exactly at -0.8 are met. So cell shape (Z-score) at or above -0.8 is met, below is not met.

| compound | group |
| --- | --- |
| c1ccc2c(c1)[I+]c1ccccc1-2 | not met |
| C[C@H]1O[C@@H](O[C@H]2CC[C@]3(CO)C4CC[C@]5(C)[C@@H](C6=CC(=O)OC6)CC[C@]5(O)C4CC[C@H]3C2)[C@H](O)[C@H](O)[C@@H]1O (some centres not stated) | met |
| O=C1c2ccccc2C(=O)c2ccccc21 | met |
| C(=C\c1ccccc1)/CN1CCN(CCOC(c2ccccc2)c2ccccc2)CC1 | not met |
| COc1ccc2c(c1O)-c1cc(O)cc3c1[C@@H](C2)N(C)CC3 | met |
| CC1(C)C(=O)C=C[C@@]2(C)C1C[C@@H](O)[C@]1(C)C2CC[C@@]2(C)[C@H](c3ccoc3)OC(=O)[C@H]3O[C@]321 (some centres not stated) | met |
| CC(C)(C)c1cc(C=C(C#N)C#N)cc(C(C)(C)C)c1O | met |
| Fc1ccc(C(OCCN2CCN(CC=Cc3ccccc3)CC2)c2ccc(F)cc2)cc1 | not met |
| COc1cc(Br)c(OC)c2c1C(CN)C2 (configuration not stated) | not met |
| CN1C[C@H](C(=O)N[C@]2(C)O[C@@]3(O)[C@@H]4CCCN4C(=O)[C@H](Cc4ccccc4)N3C2=O)C[C@@H]2c3cccc4[nH]cc(c34)C[C@H]21 | met |
| C(=Cc1ccccc1)CN1CCN(CCOC(c2ccccc2)c2ccccc2)CC1 | met |
| C[C@]12CCC3C(CC[C@]4(O)C[C@@H](O)CC[C@]34C=O)[C@@]1(O)CCC2C1=CC(=O)OC1 (some centres not stated) | not met |
| C[C@H]1O[C@@H](O[C@H]2CC[C@]3(CO)C4CC[C@]5(C)[C@@H](C6=CC(=O)OC6)CC[C@]5(O)[C@@H]4CC[C@H]3C2)[C@H](O)[C@H](O)[C@@H]1O[C@@H]1O[C@H](CO)[C@@H](O)[C@H](O)[C@H]1O (some centres not stated) | not met |
| COc1cc([C@@H]2c3cc4c(cc3[C@H](OC(C)=O)[C@H]3COC(=O)[C@H]23)OCO4)cc(OC)c1OC | met |
| CCCCC/C=C\C/C=C\C/C=C\C/C=C\CCCC(=O)NCc1ccc(O)c(OC)c1 | met |
| Cc1c(C(=O)c2cccc3ccccc23)c2cccc3c2n1[C@H](CN1CCOCC1)CO3 | not met |

###

System: human monocyte-derived macrophages (M0)
Assay: cell shape (eccentricity) Z-score vs DMSO control; higher = more elongated, M2-like morphology
Settings: 20 µM; 24 h; macrophage state: M0 (M-CSF)
Over roughly 3,800 compounds, “cell shape (eccentricity) Z-score vs DMSO control” has its median near 1.1; the lowest 2% begin near -4.7. This excerpt belongs to a sample that is enriched for the lowest values.

| molecule | assayed.target | cell shape (Z-score) |
| --- | --- | --- |
| O=C1Nc2ccccc2C2(CCN(CCc3ccc(C(F)(F)F)cc3)CC2)O1 | human monocyte-derived macrophages (M0) | -0.107 |
| N#CC(C#N)=Cc1cc(O)c(O)c([N+](=O)[O-])c1 | human monocyte-derived macrophages (M0) | -0.026 |
| CC12C(=O)OC(=O)C1(C)C1CCC2O1 (stereo not given) | human monocyte-derived macrophages (M0) | -12.8 |
| COc1ccc2c(c1)[nH]c1c(C)nccc12 | human monocyte-derived macrophages (M0) | -5.5 |
| CC(C)[C@]12O[C@H]1[C@@H]1O[C@]13[C@]1(O[C@H]1CC1C4=C(CC[C@@]13C)C(=O)OC4)[C@@H]2O (stereo not given in full) | human monocyte-derived macrophages (M0) | 8.48 |
| CN1CCc2cc3c(cc2[C@H]1C1OC(=O)c2c1ccc1c2OCO1)OCO3 (stereo not given in full) | human monocyte-derived macrophages (M0) | 0.327 |
| CCOC(=O)c1ncn2c1CN(C)C(=O)c1cc(N=[N+]=[N-])ccc1-2 | human monocyte-derived macrophages (M0) | 2.52 |
| O=C(Cc1ccc(Cl)c(Cl)c1)N1CCCCC1CN1CCCC1 (stereo not given) | human monocyte-derived macrophages (M0) | -0.746 |
| Cc1ccc2c(c1)Cc1c(C(=O)NC3CCCCC3)nn(-c3ccc(Cl)cc3Cl)c1-2 | human monocyte-derived macrophages (M0) | 2.43 |
| CC(=O)O[C@@H](c1nc2ccccc2c(=O)n1[C@@H]1C[C@@]2(OC1=O)c1ccccc1N1C(=O)[C@H](C)N(O)[C@@H]12)C(C)C | human monocyte-derived macrophages (M0) | 2.14 |

###

Test system: human monocyte-derived macrophages (M0)
Experiment: cell shape (eccentricity) Z-score vs DMSO control; higher = more elongated, M2-like morphology
Details: 20 µM; 24 h; macrophage state: M0 (M-CSF)
Whole data set: some 3,800 compounds, median “cell shape (eccentricity) Z-score vs DMSO control” near 1.1, cut for the lowest 2% near -4.7. This is one part of a sample in which the lowest values are shown more often than they occur.
Note to self: values exactly at 0.3 are Fulfilled. So cell shape (Z-score) at or above 0.3 is Fulfilled, below is Not fulfilled.

| compound | group |
| --- | --- |
| CC(C)c1c(CN(C)C(C)Cc2ccccc2)n(C)n(-c2ccccc2)c1=O (configuration not stated) | Fulfilled |
| C=C1[C@@H](C)[C@H]2[C@H](Cc3ccccc3)NC(=O)[C@]23OC(=O)/C=C/[C@H](O)CCC[C@@H](C)C/C=C/[C@H]3[C@@H]1O | Not fulfilled |
| O=c1[nH]c2ccccc2n1C1CCN(CCCC(c2ccc(F)cc2)c2ccc(F)cc2)CC1 | Not fulfilled |
| CC(=O)O[C@@H]1C[C@@]2(C)[C@H](c3ccoc3)C[C@H]3O[C@]32[C@]2(C)C(=O)C(=O)C3C(C)(C)C(=O)C=C[C@]3(C)C12 (some centres not stated) | Not fulfilled |
| C=C[C@H]1C[N@@]2CC[C@H]1C[C@H]2[C@H](O)c1ccnc2ccccc12 | Fulfilled |
| O=C1NCN(c2ccccc2)C12CCN(CCCOc1ccc(F)cc1)CC2 | Fulfilled |
| CC(=O)O[C@H]1C[C@@H](OC(C)=O)C(C)(C)C2C[C@@H](OC(C)=O)[C@]3(C)C(CC[C@@]4(C)[C@H](c5ccoc5)C(=O)[C@H]5O[C@]543)[C@]21C (some centres not stated) | Not fulfilled |

###

Test system: human monocyte-derived macrophages (M0)
Test: cell shape (eccentricity) Z-score vs DMSO control; higher = more elongated, M2-like morphology
Details: 20 µM; 24 h; macrophage state: M0 (M-CSF)
The full ranking holds about 3,800 compounds; the median of “cell shape (eccentricity) Z-score vs DMSO control” is about 1.1, and the lowest 2% start at about -4.7. The entries come from a sample that favours the lowest values as a whole.
Note to self: values exactly at 1 are rule met. So cell shape (Z-score) at or above 1 is rule met, below is rule not met.

| molecule | group |
| --- | --- |
| Cc1c([N+](=O)[O-])oc2ccc3ccccc3c12 | rule not met |
| CC(C)NCC(O)c1ccc(N)c(C#N)c1 (stereo not given) | rule not met |
| CC(C)(O)CCC(=O)[C@](C)(O)[C@H]1[C@H](O)C[C@@]2(C)[C@@H]3CC=C4C(C=C(O[C@@H]5O[C@H](CO)[C@@H](O)[C@H](O)[C@H]5O)C(=O)C4(C)C)[C@]3(C)C(=O)C[C@]12C (stereo not given in full) | rule met |
| CCNC(=O)C1OC(n2cnc3c(N)ncnc32)C(O)C1O (stereo not given) | rule met |
| COc1ccc2c3c([nH]c2c1)[C@H](CC(C)C)N1C(=O)[C@H](CCC(=O)OC(C)(C)C)NC(=O)[C@@H]1C3 | rule met |
| CN(C)C(=O)Oc1cc(OC(=O)N(C)C)cc(C(O)CNC(C)(C)C)c1 (stereo not given) | rule met |
| CC(C)(O)c1cc(O)c2c(c1)CCC1C(C)(C(=O)O)CCCC21C (stereo not given) | rule not met |
| C=CCN1C[C@H](C)N([C@H](c2ccc(C(=O)N(CC)CC)cc2)c2cccc(O)c2)C[C@H]1C | rule met |
| CC1=CC(=O)c2c(O)cccc2C1=O | rule not met |
